tested on: SK-MEL-2; experiment: NCI tumour cell line growth inhibition, 48 h
Active and inactive are the calls of the source. Cut-off read from the data, not from the text of the source: active = GI50 up to about 1.1 µM and inactive = higher.
Please reply with one of these outcomes: True for active, False for inactive

// param item: "NNC(=S)NCCNC(=S)NN" ; yields the recorded call False

What about "COC(=O)C(=CNC(N)=O)C(=O)OC" ? False

For "O=C(NP(=O)(N1CC1)N1CC1)c1cc(I)ccc1I" then? False

Moving on to "CO[C@@H](c1ccccc1)[C@H](O)[C@](O)(c1ccccc1)P(=O)(OC)OC" False

What about this compound? "O=C(c1cccc2ccccc12)C1S(=O)(=O)OCCOS1(=O)=O" False

Now consider "C\C=C/C=C/C=C/C(=O)O" and answer again. False

Same lookup for COC(=O)c1cc2c3c(cc(N(C)C)c2[nH]1)N(C(=O)c1cc2cc(OC)c(OC)c(OC)c2[nH]1)CC3CCl (stereo not given) , please. True

How about this compound: "COC(=O)C1(OC(=O)Sc2ccccc2)CCN(C)CC1" False

Another: CC1CCC2C(C(=O)O[C@H]3C4CCO[C@@H](OC5OC(CO)C(O)C(O)C5O)C4[C@@]4(CO)O[C@@H]34)=CO[C@@H](OC3OC(CO)C(O)C(O)C3O)C12 (stereo not given in full) False

Also need "O=c1cnnc2sc(=S)[nH]n12" , thanks. False

* * *

test system: HCT-116; assay: NCI tumour cell line growth inhibition, 48 h
Active and inactive are the calls of the source. No stated cut-off is given here; in the data, active = GI50 up to about 1.1 µM and inactive = higher.
Respond only with the outcome that fits, drawn from true (1) (active), false (0) (inactive)

Recorded call for COc1c2c(cc3c1C(O)N1CC[C@]34[C@H]3O[C@H]3[C@H](OC)C[C@@H]14)OCO2 (some centres undefined) ? false (0)

Repeat for the following molecule: CC(=O)OC1/C(=C/c2ccc([N+](=O)[O-])cc2)C[C@H]2[C@@H]3CC=C4C[C@@H](OC(C)=O)CC[C@]4(C)[C@H]3CC[C@]12C (some centres undefined) false (0)

Same for "COC(=O)[C@]1(C)CCCn2c(=O)n(-c3ccccc3)c(=O)n21" false (0)

Now consider "N#CC1=C(Cl)NC(Cl)=C(C#N)C1c1ccc(Cl)cc1" and answer again. false (0)

Entry "O=[N+]([O-])c1cccc(/N=N/c2c(O)c(S(=O)(=O)O)cc3cc(S(=O)(=O)O)ccc23)c1" please false (0)

Proceed to "Cc1ccc(S(=O)(=O)NC(=O)C2=C(c3ccccc3)[N-]N(C)c3nc4cccc[n+]4nc32)cc1" false (0)

Would you kindly repeat that for "CCOC(=O)Cc1c(C)c2ccc(OC(C)=O)c(OC(C)=O)c2oc1=O" ? false (0)

Could you do the same for "CCOC(=O)/C=C(\C(=O)OCC)n1ccc(=O)n(Cc2cnnn2CCCCOC(C)=O)c1=O" , please? false (0)

What do you get for "COc1ccc(Cc2cc(OC)c(OC)c(OC)c2)cc1O" ? true (1)

* * *

system: PC-3; experiment: NCI tumour cell line growth inhibition, 48 h
Activity calls are given as the source filed them. No stated cut-off is given here; in the data, active = GI50 up to about 1.1 µM and inactive = higher.
Choose one outcome from this list and give only that: active, inactive

Field: outcome | Entry: "CCc1nc(Cl)nc(Cl)c1Cl" inactive

What would you report for "CN(C)CN1C(=O)/C(=N\n2c(S)nnc2-c2ccncc2)c2ccccc21" ? inactive

Same question for "CC1=NN(C(=O)c2ccccc2O)C(=O)/C1=C/c1ccc(O)cc1" please. active

Thanks! And "N#C/C(=C\c1cc(Br)c(O)c(Br)c1)c1ccccn1" ? inactive

Same question for "Cc1nc(C)c(C(=O)NNC(=O)Cc2ccccc2)cc1C(=O)NNC(=O)Cc1ccccc1" please. inactive

And then "CCOP(=O)(/C=C/n1ccc(=O)[nH]c1=O)OCC" , what is it? inactive

* * *

system: KM12; assay: NCI tumour cell line growth inhibition, 48 h
The source made the active and inactive calls. No stated cut-off is given here; in the data, active = GI50 up to about 1.1 µM and inactive = higher.
Result category, one only: active, inactive

Would you mind telling me which call this test gave CC(=O)c1c2c(cc3c1CC1(Cc4cc5c(cc4C1=O)CCC5)C3)CCC2 (centres undefined) ? inactive

Another compound: "O=[N+]([O-])c1ccc(-n2nnc(C3=NCCN3)c2-c2ccccc2)cc1" inactive

What do we get for "CC1(C)CC(=O)C(=CN2C(=O)CNC2=S)C(=O)C1" ? inactive

Proceed to "Cc1ccc(/C=C2\Cc3c(C)cc(C)cc3C2=O)c(C(=O)O)c1" inactive

Try this compound next: "CCN(CC)c1ccc2cc(-c3nnc(-c4ccccc4)o3)c(=O)oc2c1" inactive

Subsequent entry: "O=c1sc(Nc2ccc3ccccc3c2Cl)nc2ccccc12" inactive

Another compound to look at: "Oc1ccc(-c2c3c(nc4c2CCc2ccc(Br)cc2-4)-c2cc(Br)ccc2CC3)cc1" inactive

Next entry: "COc1cc(/C=C/C(=O)O)ccc1C(=O)OCc1ccccc1" inactive

And what about the compound "COc1ccc(-c2nc(-c3cnccn3)n(Cc3ccccc3)n2)cc1" ? inactive

Now try "COC(=O)C1=C(C(=O)OC)SC2(S1)C(C(=O)OC)=C(C(=O)OC)Sc1c2ss/c1=N/C(C)(C)C" . inactive

Check "COc1ccc(-n2c(-c3ccccc3)cc(-c3cccs3)c2-c2cccs2)cc1" too. inactive

Note, next up: COC(=O)C1OC2(CCCC3CC32)O[C@H]1C(=O)OC (some centres undefined) inactive

What do you get for "COC(=O)[C@]1(C)CCCn2c(=O)n(-c3ccccc3)c(=O)n21" ? inactive

For "COc1ccc(Nc2nc3ccccc3nc2C(=O)O)cc1OC" then? inactive

Try "NC(=O)Cn1c(=O)oc2cc(C(=O)CN3CCOCC3)ccc21" next. inactive

Now the same for CC(=O)NC1C(OCc2ccccc2)OC(COC(=O)CCCCCCCCCCNC(=O)CCNc2ccc([N+](=O)[O-])c3[nH]c4ccc(O)cc4c(=O)c23)C(O)C1OC(C)C(=O)N[C@H](C(=O)N[C@H](CCC(=O)O)C(N)=O)C(C)C (some centres undefined) inactive

Do the same for "N/C(=N\c1c([N+](=O)[O-])cnc2ccccc12)N1CCOCC1" please inactive

Here is the next compound: CCCCCCCCCCCCN1[C@H]2CCC[C@H]2C(O)[C@@H]2CCC[C@@H]21 (some centres undefined) inactive

Now this one: COC(=O)[C@@]12C(=O)C=CC(=O)[C@@H]1C1C(=CC2COC(C)=O)O[C@@H]2OC3(CCCCC3)O[C@H]12 (some centres undefined) inactive

Item: "Fc1cccc(/C=N/C23CC4CC(CC(C4)C2)C3)c1" inactive

Moving on to the next compound: COc1c(O)c2c3c(c(C)cc(O)c3c1O)C(=O)C(O)(C(C)(C)C(C)=O)C2=O (centres undefined) inactive

Moving on to "O=C1/C(=C/c2ccc(Cl)cc2)N=C(c2ccccc2)N1c1nc2ccc(Sc3ccccc3)cc2[nH]1" inactive

Follow-up entry: "Cc1cn2c(/C=N/NC(=N)N)c(-c3ccc(Cl)c([N+](=O)[O-])c3)nc2s1" active

Then "CN/N=C(/CC(=O)c1sc(-n2nc(-c3ccccc3)cc2-c2ccccc2)nc1C)C(=O)Nc1ccc(Cl)c(Cl)c1" ? inactive

What do you get for "CCCCCCCCCCCCCCCCP(=O)([O-])OCC[N+](C)(C)C" ? inactive

# repeat for "O=C1/C(=C/c2ccc(Cl)cc2)NC(=S)N1CN1CCOCC1" inactive

Quick one: COC(C(O)c1ccc2c(c1)OCO2)P(=O)(c1ccccc1)c1ccccc1 (centres undefined) inactive

Try this compound too: O=C(c1ccccc1)C1N=NN(Cc2ccccc2[N+](=O)[O-])C1C(=O)c1ccccc1 (centres undefined) inactive

Check "O=c1c2ccccc2nc(Cc2nc(-c3ccc(Cl)cc3)cs2)n1-c1ccc(Cl)cc1" too. inactive

Thanks! And Nc1ncnc2nn(C3OC(CO)C(O)C3O)nc12 (centres undefined) ? inactive

Next compound: COc1cc(/C=C/C(=O)CC(=O)/C=C/c2ccc(O)c(OC)c2)ccc1O [CURCUMIN] inactive

// next record "CCN(CC)CCNC(=O)c1cc2cc(NC(=O)c3cc4cc(NC(=O)c5cc6cc(N)ccc6[nH]5)ccc4[nH]3)ccc2[nH]1" inactive

Next entry: CCC1OC(=O)CC(O)C(C)C(OC2OC(C)C(O)C(N(C)C)C2O)C(CC=O)CC(C)C(=O)/C=C/C2(C)OC2C1C (centres undefined) inactive

Same lookup for "COc1cccc(C(=O)C#Cc2cnc(OC)nc2OC)c1" , please. inactive

Also check COc1ccc(C2ON(c3cccc(C)n3)CC=C2C)cc1 (centres undefined) inactive

Also, "COc1cc(OC)nc(-n2c(N)c(C(=O)O)c3ccc([N+](=O)[O-])cc3c2=O)n1" please. inactive

Consider next the compound O=C(CN1CCCCC1)N1CCc2c([nH]c3ccccc23)C1c1cccnc1 (centres undefined) in the same way. inactive

Same read-out for [N-]=[N+]=NC1C(O)C(CO)OC1n1ccc(=O)[nH]c1=O (centres undefined) ? inactive

Can you handle "c1ccc(OCCSCCCCCCCCCCSCCOc2ccccc2)cc1" next? inactive
